# subject-of-test: T1, LAG3 on cells (recombinant CHO cells expressing Lag3) (human, UniProt P18627 29-525)
# T1 sequence: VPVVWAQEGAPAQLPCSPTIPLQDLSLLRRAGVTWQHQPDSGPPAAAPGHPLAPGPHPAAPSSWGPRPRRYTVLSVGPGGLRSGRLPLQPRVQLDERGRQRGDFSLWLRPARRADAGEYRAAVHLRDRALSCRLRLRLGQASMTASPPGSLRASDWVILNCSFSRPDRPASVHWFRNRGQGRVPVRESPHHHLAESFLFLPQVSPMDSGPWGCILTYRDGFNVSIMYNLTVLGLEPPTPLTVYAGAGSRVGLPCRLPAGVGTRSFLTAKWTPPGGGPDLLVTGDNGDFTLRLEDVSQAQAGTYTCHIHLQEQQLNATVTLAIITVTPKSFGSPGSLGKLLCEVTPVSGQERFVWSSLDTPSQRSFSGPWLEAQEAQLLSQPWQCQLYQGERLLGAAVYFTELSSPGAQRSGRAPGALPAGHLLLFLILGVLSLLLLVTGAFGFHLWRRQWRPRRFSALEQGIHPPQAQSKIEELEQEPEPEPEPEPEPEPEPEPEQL
# assay: cell-based or functional assay
The following binders are shown together with reported EC50 [nM] in Jurkat LAG3 + SED + Raji (NFAT luciferase), 2nd assay values.
Unit nM implied. Number only.

humanized BAP050 (LAG525) (antibody, V domains shown, also called aLAG3(BAP050)) VH: QIQLVQSGPELKKPGETVKISCKASGFTLTNYGMNWVRQTPGKGLKWMGWINTDTGEPTYADDFKGRFAFSLETSASTASLQINNLKNADTATYFCARNPPYYYGTNNAEAMDYWGQGTTVTVSS VL: DIQMTQTTSSLSASLGDRVTISCSSSQDISNYLNWYQQKPDGTVKVLIYYTSTLHLGVPSRFSGSGSGTDYSLTISNLELEDIATYYCQQYYNLPWTFGQGTKVEIK = 22.6

Read the next record carefully.
Exercise: So what's the measured EC50 [nM] in Jurkat LAG3 + SED + Raji (NFAT luciferase), 2nd assay for this one? aLAG3(0416) (antibody, V domains shown) VH: EVQLVESGGGLVQPGGSLRLACAASGFTFSDYAMSWVRQAPGKGLEWVSGIDNSGYYTYYTDSVKGRFTISRDDVKNTLYLQMNSLRAEDTAVYLCTKTHSGLIVNDAFDIWGQGTMVTVSS VL: DIQLTQSPSSLSASVGDRVTITCRASQSISSYLNWYQQKPGKAPKLLIYDASSLESGVPSRFSGSGSGTDATLTISSLQPEDFATYYCQQSYSTPLTFGGGTKVEIKG
Key: 2.5
